Reference source: patent US20240208992A1

# ASSAYED TARGET: human F508del-CFTR (Homo sapiens, UniProt P13569, DEL508-508)
# Sequence (P13569 with tags, fused parts or gaps DEL508-508): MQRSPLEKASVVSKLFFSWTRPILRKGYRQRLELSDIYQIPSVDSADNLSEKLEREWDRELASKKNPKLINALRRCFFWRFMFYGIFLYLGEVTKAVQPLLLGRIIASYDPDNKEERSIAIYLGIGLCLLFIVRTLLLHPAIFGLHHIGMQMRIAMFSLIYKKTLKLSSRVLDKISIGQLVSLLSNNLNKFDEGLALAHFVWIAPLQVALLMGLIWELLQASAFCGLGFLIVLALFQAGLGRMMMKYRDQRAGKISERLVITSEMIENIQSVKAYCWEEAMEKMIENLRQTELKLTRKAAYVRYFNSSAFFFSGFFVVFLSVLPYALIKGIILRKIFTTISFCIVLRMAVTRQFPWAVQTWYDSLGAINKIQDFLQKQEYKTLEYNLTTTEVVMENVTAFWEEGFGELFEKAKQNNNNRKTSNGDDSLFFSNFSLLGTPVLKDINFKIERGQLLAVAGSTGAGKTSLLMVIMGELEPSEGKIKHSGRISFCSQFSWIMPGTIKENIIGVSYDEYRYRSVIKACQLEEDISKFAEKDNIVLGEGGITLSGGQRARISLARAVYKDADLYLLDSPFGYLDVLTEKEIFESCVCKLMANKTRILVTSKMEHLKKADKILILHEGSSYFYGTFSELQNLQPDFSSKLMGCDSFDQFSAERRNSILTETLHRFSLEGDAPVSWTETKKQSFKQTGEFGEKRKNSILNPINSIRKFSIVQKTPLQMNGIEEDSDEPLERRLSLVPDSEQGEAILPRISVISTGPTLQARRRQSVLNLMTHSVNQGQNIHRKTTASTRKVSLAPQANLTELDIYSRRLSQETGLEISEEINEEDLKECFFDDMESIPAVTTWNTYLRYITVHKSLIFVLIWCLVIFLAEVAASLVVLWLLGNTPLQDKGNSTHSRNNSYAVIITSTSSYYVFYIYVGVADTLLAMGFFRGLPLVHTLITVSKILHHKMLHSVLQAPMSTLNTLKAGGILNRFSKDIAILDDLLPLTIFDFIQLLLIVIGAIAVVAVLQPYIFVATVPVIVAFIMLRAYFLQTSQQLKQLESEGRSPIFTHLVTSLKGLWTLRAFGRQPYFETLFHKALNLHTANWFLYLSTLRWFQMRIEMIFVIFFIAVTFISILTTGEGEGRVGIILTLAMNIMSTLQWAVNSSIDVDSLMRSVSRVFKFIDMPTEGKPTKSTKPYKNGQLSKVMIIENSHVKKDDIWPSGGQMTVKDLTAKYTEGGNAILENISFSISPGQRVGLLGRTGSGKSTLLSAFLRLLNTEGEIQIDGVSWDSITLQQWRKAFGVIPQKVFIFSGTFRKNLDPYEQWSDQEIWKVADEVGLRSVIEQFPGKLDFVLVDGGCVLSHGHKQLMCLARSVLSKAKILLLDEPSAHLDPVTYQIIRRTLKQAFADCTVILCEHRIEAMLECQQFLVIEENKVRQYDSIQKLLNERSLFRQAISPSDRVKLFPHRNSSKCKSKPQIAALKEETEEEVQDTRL
# EXPERIMENT: F508del-CFTR cell surface expression (corrector activity), DiscoveRx ß-galactosidase complementation chemiluminescence assay in recombinant U2OS cell line
# CONDITIONS USED: EC50, F508del-CFTR cell surface expression, U2OS cells, 16h compound incubation; geomean of several measurements
pEC50: −log10 of the molar value.
Listing of recorded pEC50 by entry.

MOLECULE	pEC50
CC(C)C[C@H]1C(=O)N(C)[C@H](CC(F)F)C(=O)N[C@H](Cc2ccccc2)COc2ccc3ncc(F)cc3c2C(=O)N[C@H](C(=O)NCCn2nnc(C3CC3)n2)CC(=O)N1C [Example 893]	6.67
COc1cc(CCNC(=O)[C@@H]2CC(=O)N(C)[C@@H](CC(C)C)C(=O)N(C)[C@H](CCOc3ccccc3)C(=O)N[C@H](Cc3ccccc3)COc3ccnc(OC)c3C(=O)N2)on1 [Example 856]	7.46
CC(C)C[C@H]1C(=O)N(C)[C@H](Cc2nc(-c3ccc(F)cn3)no2)C(=O)N[C@H](Cc2ccccc2)COc2ccc3ncc(F)cc3c2C(=O)N[C@H](C(=O)NC[C@@H](O)c2nc(C3CC3)no2)CC(=O)N1C [Example 892]	6.33
COCCn1cc(CCNC(=O)[C@@H]2CC(=O)N(C)[C@@H](CC(C)C)C(=O)N(C)[C@H](Cc3nc(C(F)(F)F)no3)C(=O)N[C@H](Cc3ccccc3)COc3cc(C)nc(OC)c3C(=O)N2)cn1 [Example 961]	6.45
CC(C)C[C@H]1C(=O)N(C)[C@H](Cc2nc(-c3ccc(F)cn3)no2)C(=O)N[C@H](Cc2ccccc2)COc2cnc3ccc(F)cc3c2C(=O)N[C@H](C(=O)NCCCOC(F)(F)F)CC(=O)N1C [Example 846]	6.78
Cc1cc2c(c3cccnc13)C(=O)N[C@H](C(=O)NCCn1nnc(C3CC3)n1)CC(=O)N(C)[C@@H](CC(C)C)C(=O)N1CCCC[C@@H]1C(=O)N[C@H](Cc1ccccc1)CO2 [Example 888]	6.77
COc1nccc2c1C(=O)N[C@H](C(=O)NCCCOC(F)F)CC(=O)N(C)[C@@H](CC(C)C)C(=O)N1CCCC[C@@H]1C(=O)N[C@H](Cc1ccccc1)CO2 [Example 850]	5.94
COc1cc(CCNC(=O)[C@@H]2CC(=O)N(C)[C@@H](CC(C)C)C(=O)N(C)[C@H](Cc3nc(C(F)(F)F)no3)C(=O)N[C@H](Cc3ccccc3)COc3cnc4ccc(F)cc4c3C(=O)N2)on1 [Example 809]	8.00
CC(C)C[C@H]1C(=O)N2CCCC[C@@H]2C(=O)N[C@H](Cc2ccccc2)COc2ccc3ncc(F)cc3c2C(=O)N[C@H](C(=O)NCCn2nnc(C3CC3)n2)CC(=O)N1C [Example 829]	6.85
CC(C)C[C@H]1C(=O)N(C)[C@H](Cc2nc(-c3ccc(F)cn3)no2)C(=O)N[C@H](Cc2ccccc2)COc2ccc3ncc(F)cc3c2C(=O)N[C@H](C(=O)NCCn2nnc(C3CC3)n2)CC(=O)N1C [Example 804]	6.94

---

# ASSAYED TARGET: human F508del-CFTR (Homo sapiens, UniProt P13569, DEL508-508)
# EXPERIMENT: F508del-CFTR cell surface expression (corrector activity), DiscoveRx ß-galactosidase complementation chemiluminescence assay in recombinant U2OS cell line;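 also: U2OS cells co-expressing ProLink-tagged F508del-CFTR and a membrane-anchored enzyme acceptor, where more surface CFTR restores β-galactosidase activity measured by chemiluminescence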
# CONDITIONS USED: U2OS, in relation to Emax of corrector lumacaftor (=100%); arithmetic mean values
Listing of recorded Emax by entry.

QUERY SMILES	UNITS SYMBOL	Emax
COc1cccc(CCNC(=O)[C@@H]2CC(=O)N(C)[C@@H](CC(C)C)C(=O)N(C)[C@H](C)C(=O)N[C@H](Cc3ccccc3)COc3cnc4ccccc4c3C(=O)N2)c1	%	340
COc1cccc(CCNC(=O)[C@@H]2CC(=O)N(C)[C@@H](CC(C)C)C(=O)N3CCCC[C@@H]3C(=O)N[C@H](Cc3ccccc3)COc3cccc(OC)c3C(=O)N2)c1	%	259
COc1nc(C)cc2c1C(=O)N[C@H](C(=O)NCCc1cc(C(F)(F)F)no1)CC(=O)N(C)[C@@H](CC(C)C)C(=O)N1CCCC[C@H]1C(=O)N[C@H](Cc1ccccc1)CO2	%	149
